# credit: patent US11780849B2

SYSTEM UNDER TEST: ENPP1 on MDA-MB-231 cells (Homo sapiens (Human))
Sequence (P22413 whole entry): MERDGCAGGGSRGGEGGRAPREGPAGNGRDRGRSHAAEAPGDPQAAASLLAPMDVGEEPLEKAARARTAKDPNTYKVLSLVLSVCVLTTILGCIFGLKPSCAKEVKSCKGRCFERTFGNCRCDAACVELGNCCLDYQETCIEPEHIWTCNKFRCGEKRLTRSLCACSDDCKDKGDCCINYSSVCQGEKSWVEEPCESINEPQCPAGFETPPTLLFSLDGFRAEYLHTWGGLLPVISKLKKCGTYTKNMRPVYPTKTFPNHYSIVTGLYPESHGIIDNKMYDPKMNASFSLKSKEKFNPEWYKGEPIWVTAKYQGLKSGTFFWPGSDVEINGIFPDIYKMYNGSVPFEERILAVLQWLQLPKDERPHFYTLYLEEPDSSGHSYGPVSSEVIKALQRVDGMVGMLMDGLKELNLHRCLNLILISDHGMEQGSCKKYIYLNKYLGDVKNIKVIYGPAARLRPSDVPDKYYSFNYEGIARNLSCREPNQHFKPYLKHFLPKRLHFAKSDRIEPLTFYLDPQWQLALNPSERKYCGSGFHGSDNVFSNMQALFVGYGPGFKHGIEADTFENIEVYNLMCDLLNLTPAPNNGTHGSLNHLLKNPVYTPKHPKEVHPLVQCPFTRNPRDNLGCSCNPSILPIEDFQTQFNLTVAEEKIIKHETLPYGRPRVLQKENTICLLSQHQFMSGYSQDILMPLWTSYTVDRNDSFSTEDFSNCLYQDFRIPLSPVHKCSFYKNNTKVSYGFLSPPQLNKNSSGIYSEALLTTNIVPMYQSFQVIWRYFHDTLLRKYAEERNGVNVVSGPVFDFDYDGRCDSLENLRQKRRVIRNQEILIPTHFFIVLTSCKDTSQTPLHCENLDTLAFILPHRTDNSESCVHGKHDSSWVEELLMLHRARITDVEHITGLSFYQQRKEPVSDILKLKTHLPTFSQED
MEASUREMENT DESCRIPTION: Assay 3: inhibition of ENPP1 hydrolysis of AMP p-nitrophenyl ester on MDA-MB-231 cells
ASSAY CONDITIONS: read-out: Assay 3 (KI, app); apparent KI from IC50 via Cheng/Prusoff; pNP-AMP […], MDA-MB-231 cells, pH 7.4, 37° C., 3 h; unit inferred
MEASURED QUANTITY: Ki (nM)
Dear colleague, please return just the value in nM, with no unit written.

Please review the entries below; each comes with its answer.
compound="COc1ccc2c(OCc3cccc([S@@](C)(=N)=O)c3)ccnc2c1 [Compound 133a]" system_under_test="ENPP1 on MDA-MB-231 cells (Homo sapiens (Human))" measure_unit=nM reported_value=4.1
compound="COc1cccc2c(N3CCC(C[S@](C)(=N)=O)CC3)c(C#N)cnc12 [Compound 179b]" system_under_test="ENPP1 on MDA-MB-231 cells (Homo sapiens (Human))" measure_unit=nM reported_value=0.63
compound="COc1cc2ncnc(N3CCC(CN[S@@](C)(=N)=O)CC3)c2cc1OC [Compound 94a]" system_under_test="ENPP1 on MDA-MB-231 cells (Homo sapiens (Human))" measure_unit=nM reported_value=46
compound="COc1cc2nccc(N3CCC4(CC3)CCN([S@@](C)(=N)=O)C4)c2cc1F [Compound 205b]" system_under_test="ENPP1 on MDA-MB-231 cells (Homo sapiens (Human))" measure_unit=nM reported_value=0.12
compound="COc1ccc2c(Oc3ccc([S@@](C)(=N)=O)cc3)ccnc2c1 [Compound 80a]" system_under_test="ENPP1 on MDA-MB-231 cells (Homo sapiens (Human))" measure_unit=nM reported_value=13

Request: What measured Ki goes with COc1cccc2c(N3CCC(O)(C[S@](=N)(=O)C4CC4)CC3)ncnc12 [Compound 193b] ?
Result: 0.36

Request: Another compound to look at: COc1cc2ncnc(N3CCC4(CC3)CCN([S@](=N)(=O)C3CC3)C4)c2cc1OC [Compound 160a]
Result: 0.22

Request: Another compound to look at: COc1cc2nccc(OC[C@H]3CCN([S@@](C)(=N)=O)C3)c2cc1F [Compound 230b]
Result: 6.6

Request: Another compound to look at: COc1ccc2c(Oc3ccc([S@@](=N)(=O)C4CC4)cc3)ccnc2c1 [Compound 60a]
Result: 11

Request: Another compound to look at: COc1cc2nccc(N3CCC4(CC3)CCN([S@@](=N)(=O)C3CC3)C4)c2cc1F [Compound 218a]
Result: 0.29

Request: Another compound to look at: COc1cc2nccc(OCc3cccc([S@](C)(=N)=O)c3)c2cc1OC [Compound 175a]
Result: 0.53

Request: Another compound to look at: COc1cc2ncnc(-c3ccc4c(c3)CN([S@](C)(=N)=O)CC4)c2cc1OC [Compound 37b]
Result: 21

Request: Another compound to look at: COc1ccc2c(N3CCC4(CC3)CCN([S@](C)(=N)=O)C4)ccnc2c1 [Compound 55a]
Result: 8.7

----------
SYSTEM UNDER TEST: ENPP-1 ECD (Homo sapiens (Human), UniProt P22413)
Sequence (P22413 98-925): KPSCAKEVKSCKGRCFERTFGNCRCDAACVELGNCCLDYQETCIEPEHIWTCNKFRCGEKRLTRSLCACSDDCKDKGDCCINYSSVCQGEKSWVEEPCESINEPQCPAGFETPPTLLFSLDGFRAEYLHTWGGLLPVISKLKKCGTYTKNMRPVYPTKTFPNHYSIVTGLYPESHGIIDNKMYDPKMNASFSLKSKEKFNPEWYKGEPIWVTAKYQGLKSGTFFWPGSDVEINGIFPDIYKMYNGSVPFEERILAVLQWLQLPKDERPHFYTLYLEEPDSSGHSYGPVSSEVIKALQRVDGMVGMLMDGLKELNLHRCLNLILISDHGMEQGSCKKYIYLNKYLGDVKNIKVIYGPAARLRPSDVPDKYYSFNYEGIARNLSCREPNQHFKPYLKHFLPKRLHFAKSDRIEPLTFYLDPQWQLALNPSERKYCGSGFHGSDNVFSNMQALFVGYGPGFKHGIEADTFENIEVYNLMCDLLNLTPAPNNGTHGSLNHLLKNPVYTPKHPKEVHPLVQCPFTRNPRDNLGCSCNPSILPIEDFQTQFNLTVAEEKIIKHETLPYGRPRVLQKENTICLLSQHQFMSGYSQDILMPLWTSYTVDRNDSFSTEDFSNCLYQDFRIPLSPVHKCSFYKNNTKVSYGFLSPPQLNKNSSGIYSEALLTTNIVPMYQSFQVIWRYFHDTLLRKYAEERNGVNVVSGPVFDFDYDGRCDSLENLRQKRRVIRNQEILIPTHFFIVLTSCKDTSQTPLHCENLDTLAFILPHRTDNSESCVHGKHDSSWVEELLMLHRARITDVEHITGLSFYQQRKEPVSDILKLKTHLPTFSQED
MEASUREMENT DESCRIPTION: Assay 2: inhibition of ENPP1 hydrolysis of 2′,3′-cGAMP (AMP-Glo, […] enzyme)
ASSAY CONDITIONS: read-out: Assay 2 (KI); ENPP1 hydrolysis of 2′,3′-cGAMP, AMP-Glo, […] ENPP-1, 24 μM cGAMP
Consider the following molecules and their measured Ki readings.

molecule="COc1cc2nccc(N3CCC(CC[S@@](C)(=N)=O)CC3)c2cc1Cl [Compound 141a]" reported_value="< 3 nM"
molecule="COc1cc2nccc(-c3ccc4c(c3)CN([S@](C)(=N)=O)CC4)c2cc1OC [Compound 161b]" reported_value="< 3 nM"
molecule="COc1cc2ncc(C#N)c(Oc3ccc([S@](C)(=N)=O)cc3)c2cc1F [Compound 44b]" reported_value="> 300 nM"
molecule="COc1ccc2c(Oc3ccc([S@](=N)(=O)C4CC4)cc3)ccnc2c1 [Compound 60b]" reported_value="3 to 300 nM"
molecule="COc1cc2ncnc(-c3ccc4c(c3)CN([S@](C)(=N)=O)CC4)c2cc1OC [Compound 37b]" reported_value="< 3 nM"
molecule="COc1cc2nccc(Oc3ccc([S@](C)(=N)=O)cc3)c2cc1F [Compound 114a]" reported_value="< 3 nM"

Request: State its Ki on ENPP-1 ECD (Homo sapiens (Human), UniProt P22413): COc1cc2nccc(Oc3ccc([S@@](=N)(=O)C4CC4)cc3)c2cc1F [Compound 120a]
Result: < 3 nM

Request: Another molecule to look at: CC[S@](=N)(=O)c1ccc(Oc2ccnc3cc(OC)ccc23)cc1 [Compound 103b]
Result: < 3 nM

Request: Another molecule to look at: COc1cc2ncnc(-c3ccc4c(c3)CN([S@@](C)(=N)=O)CC4)c2cc1OC [Compound 37a]
Result: 3 to 300 nM

Request: Another molecule to look at: COc1ccc2c(Oc3ccc([S@](C)(=N)=O)cc3)ccnc2c1 [Compound 80b]
Result: 3 to 300 nM

Request: Another molecule to look at: COc1cc2nccc(Oc3ccc([S@](=N)(=O)C4CC4)cc3)c2cc1F [Compound 120b]
Result: 3 to 300 nM

----------
SYSTEM UNDER TEST: UniProt:P22413
MEASUREMENT DESCRIPTION: Assay 2: inhibition of ENPP1 hydrolysis of 2′,3′-cGAMP (AMP-Glo, […] enzyme)
ASSAY CONDITIONS: read-out: Assay 2 (KI); ENPP1 hydrolysis of 2′,3′-cGAMP, AMP-Glo, […] ENPP-1, 24 μM cGAMP
pKi: −log10 of the molar value.
MEASURED QUANTITY: pKi

Please review the entries below; each comes with its answer.
compound="COc1ccc2c(Oc3ccc([S@@](C)(=N)=O)cc3)ccnc2c1 [Compound 80a]" measured_quantity=pKi reported_value="> 8.52"
compound="COc1cc2nccc(N3CCC4(CC3)CCN([S@](C)(=N)=O)C4)c2cc1Cl [Compound 156b]" measured_quantity=pKi reported_value="> 8.52"
compound="COc1cc2ncnc(N3CCC4(CC3)CCN([S@](C)(=N)=O)C4)c2cc1OC [Compound 54b]" measured_quantity=pKi reported_value="> 8.52"
compound="COc1ccc2c(OCc3ccc([S@@](C)(=N)=O)cc3)ccnc2c1 [Compound 75a]" measured_quantity=pKi reported_value="> 8.52"
compound="COc1cc2ncnc(N3CCC(CN[S@](C)(=N)=O)CC3)c2cc1OC [Compound 94b]" measured_quantity=pKi reported_value="6.52 to 8.52"
compound="COc1ccc2c(-c3ccc4c(c3)CN([S@](C)(=N)=O)CC4)ccnc2c1 [Compound 52a]" measured_quantity=pKi reported_value="6.52 to 8.52"
compound="COc1cc2ncc(C#N)c(Oc3ccc([S@@](C)(=N)=O)cc3)c2cc1F [Compound 44a]" measured_quantity=pKi reported_value="> 8.52"

Query compound follows.
Request: What measured pKi goes with COc1cc2ncnc(N3CCC4(CC3)CCN([S@@](C)(=N)=O)C4)c2cc1OC [Compound 54a] ?
Result: > 8.52

----------
Consider the following molecules and their measured pKi readings.
SYSTEM UNDER TEST: ENPP-1 ECD (Homo sapiens (Human))
MEASUREMENT DESCRIPTION: Assay 2: inhibition of ENPP1 hydrolysis of 2′,3′-cGAMP (AMP-Glo, […] enzyme)
ASSAY CONDITIONS: Assay 2 (KI), ENPP1 hydrolysis of 2′,3′-cGAMP, AMP-Glo, […] ENPP-1, 24 μM cGAMP
pKi: −log10 of the molar value.

Please review the entries below; each comes with its answer.
molecule="COc1ccc2c(Oc3ccc(S(C)(=N)=O)cc3F)ccnc2c1 (stereo not drawn)" measured_quantity=pKi reported_value="6.52 to 8.52"
molecule="COc1cc2nccc(N3CCC(CCS(C)(=N)=O)CC3)c2cc1Cl (stereo not drawn)" measured_quantity=pKi reported_value="> 8.52"
molecule="COc1cc2ncnc(N3CCC(CCCS(C)(=N)=O)CC3)c2cc1OC (stereo not drawn)" measured_quantity=pKi reported_value="6.52 to 8.52"
molecule="COc1cc2nccc(N3CCC(CCS(C)(=N)=O)CC3)c2cc1F (stereo not drawn)" measured_quantity=pKi reported_value="> 8.52"
molecule="COc1ccc2c(OCc3cccc(S(C)(=N)=O)c3)ccnc2c1 (stereo not drawn)" measured_quantity=pKi reported_value="> 8.52"

Query molecule follows.
Request: State its pKi on ENPP-1 ECD (Homo sapiens (Human)): COc1ccc2c(OCc3ccc(S(C)(=N)=O)cc3)ccnc2c1 (stereo not drawn)
Result: > 8.52
